# target.or.system: wild-type vaginolysin (VLY^wt) (Gardnerella vaginalis, UniProt B2YGA4 31-516)
# assay.remarks: MST
observation.type: pKd
# pKd: negative log10 of molar concentration; output just the value

Short answer for CD59 mutant D22A (CD59^D22A) (receptor, human, Dylight 650 label (in the microscale thermophoresis only)) LQCYNCPNPTADCKTAVNCSSAFDACLITKAGLQVYNKCWKFEHCNFNDVTTRLRENELTYYCCKKDLCNFNEQLEN : pKd was 6.11
